- procedure_summary: Drug excretion in Wistar rat urine treated with antroquinonol at 200 mg/kg, po administered via gavage measured after 24 hrs by HPLC-SPE-TT-NMR analysis
- Type: ADME, organism-based
- Parameters: dose 200 mg/kg, route oral
- measurement_parameters: in vivo
recorded_endpoint: Drug excretion

- COC1=C(OC)[C@H](O)[C@H](C/C=C(\C)CCC(=O)O)[C@@H](C)C1=O: metabolite_detected
- COC1=C(O)[C@H](C)[C@@H](C/C=C(\C)CCC(=O)O)[C@@H](O)C1=O: metabolite_detected
- COC1=C(OC)[C@H](O)[C@H](CC/C(C)=C/CC(=O)O)[C@@H](C)C1=O: metabolite_detected
- COC1=C(O)[C@H](C)[C@@H](CC/C(C)=C/CC(=O)O)[C@@H](O)C1=O: metabolite_detected
